Measured tissue uptake at 4 h, listed per entry for reference.
- Procedure details: in vivo
- Run parameters: BALB/c nude, mouse, in vivo, iv, total radioactivity, % ID/g Muscle
Use %ID/g as the unit, but write only the number.

A selection of reference data follows.
Compound	tissue uptake at 4 h, %ID/g
C[C@@H](O)[C@H](NC(=O)[C@@H]1CSSC[C@H](NC(=O)[C@@H](Cc2ccccc2)NC(=O)CN2CCN(CC(=O)O)CCN(CC(=O)O)CCN(CC(=O)O)CC2)C(=O)N[C@@H](Cc2ccc(O)cc2)C(=O)N[C@H](Cc2c[nH]c3ccccc23)C(=O)N[C@@H](CCCCN)C(=O)N[C@@H]([C@@H](C)O)C(=O)N1)C(=O)O [^177Lu-C-1, metal not drawn, reference compound]	0.01
C[C@@H](O)[C@H](NC(=O)[C@@H]1CSSC[C@H](NC(=O)[C@@H](Cc2ccccc2)NC(=O)COCCOCCNC(=O)[C@H](CCCCNC(=O)c2cccc(NC(=O)N[C@@H]3CN(C4CCCCC4)c4ccccc4N(CC(=O)C(C)(C)C)C3=O)c2)NC(=O)CN2CCN(CC(=O)O)CCN(CC(=O)O)CCN(CC(=O)O)CC2)C(=O)N[C@@H](Cc2ccc(O)cc2)C(=O)N[C@H](Cc2c[nH]c3ccccc23)C(=O)N[C@@H](CCCCN)C(=O)N[C@@H]([C@@H](C)O)C(=O)N1)C(=O)O [Compound 177Lu-I-37, metal not drawn]	0.38
CC(C)(C)C(=O)CN1C(=O)[C@H](NC(=O)Nc2cccc(C(=O)N[C@@H](CCC(=O)N[C@@H](CCC(=O)N[C@@H](CCC(=O)N[C@@H](CCCCNC(=O)COCCOCCNC(=O)COCCOCCNC(=O)CCC(C(=O)O)N3CCN(CC(=O)O)CCN(CC(=O)O)CCN(CC(=O)O)CC3)C(N)=O)C(=O)O)C(=O)O)C(=O)O)c2)CN(C2CCCCC2)c2ccccc21 (stereo partly shown) [^177Lu-C-4, metal not drawn, reference compound]	0.02

Proceeding to the next compound to report its tissue uptake at 4 h.
The compound identified as C[C@@H](O)[C@H](NC(=O)[C@@H]1CSSC[C@H](NC(=O)[C@@H](Cc2ccccc2)NC(=O)[C@H](CCCCNC(=O)c2cccc(NC(=O)N[C@@H]3CN(C4CCCCC4)c4ccccc4N(CC(=O)C(C)(C)C)C3=O)c2)NC(=O)COCCOCCNC(=O)CN2CCN(CC(=O)O)CCN(CC(=O)O)CCN(CC(=O)O)CC2)C(=O)N[C@@H](Cc2ccc(O)cc2)C(=O)N[C@H](Cc2c[nH]c3ccccc23)C(=O)N[C@@H](CCCCN)C(=O)N[C@@H]([C@@H](C)O)C(=O)N1)C(=O)O [^177Lu-I-35, metal not drawn] registered its tissue uptake at 4 h at 0.42

====

- Procedure details: in vivo
- Run parameters: BALB/c nude, mouse, in vivo, iv, total radioactivity, % ID/g Blood
Measured tissue uptake at 72 h, listed per entry for reference.
Use %ID/g as the unit, but write only the number.

Compound	Units symbol	tissue uptake at 72 h
C[C@@H](O)[C@H](NC(=O)[C@@H]1CSSC[C@H](NC(=O)[C@@H](Cc2ccccc2)NC(=O)[C@H](CCCCNC(=O)COCCOCCNC(=O)c2cccc(NC(=O)N[C@@H]3CN(C4CCCCC4)c4ccccc4N(CC(=O)C(C)(C)C)C3=O)c2)NC(=O)CN2CCN(CC(=O)O)CCN(CC(=O)O)CCN(CC(=O)O)CC2)C(=O)N[C@@H](Cc2ccc(O)cc2)C(=O)N[C@H](Cc2c[nH]c3ccccc23)C(=O)N[C@@H](CCCCN)C(=O)N[C@@H]([C@@H](C)O)C(=O)N1)C(=O)O [^177Lu-I-36, metal not drawn]	%ID/g	0.21

The compound identified as C[C@@H](O)[C@H](NC(=O)[C@@H]1CSSC[C@H](NC(=O)[C@@H](Cc2ccccc2)NC(=O)CN2CCN(CC(=O)O)CCN(CC(=O)O)CCN(CC(=O)O)CC2)C(=O)N[C@@H](Cc2ccc(O)cc2)C(=O)N[C@H](Cc2c[nH]c3ccccc23)C(=O)N[C@@H](CCCCN)C(=O)N[C@@H]([C@@H](C)O)C(=O)N1)C(=O)O [^177Lu-C-1, metal not drawn, reference compound] registered its tissue uptake at 72 h at 0.01

The compound identified as C[C@@H](O)[C@H](NC(=O)[C@@H]1CSSC[C@H](NC(=O)[C@@H](Cc2ccccc2)NC(=O)COCCOCCNC(=O)COCCOCCNC(=O)[C@H](CCCCNC(=O)c2cccc(NC(=O)N[C@@H]3CN(C4CCCCC4)c4ccccc4N(CC(=O)C(C)(C)C)C3=O)c2)NC(=O)CN2CCN(CC(=O)O)CCN(CC(=O)O)CCN(CC(=O)O)CC2)C(=O)N[C@@H](Cc2ccc(O)cc2)C(=O)N[C@H](Cc2c[nH]c3ccccc23)C(=O)N[C@@H](CCCCN)C(=O)N[C@@H]([C@@H](C)O)C(=O)N1)C(=O)O [Compound 177Lu-I-39, metal not drawn] registered its tissue uptake at 72 h at 0.06

The compound identified as C[C@@H](O)[C@H](NC(=O)[C@@H]1CSSC[C@H](NC(=O)[C@@H](Cc2ccccc2)NC(=O)[C@H](CCCCNC(=O)c2cccc(NC(=O)N[C@@H]3CN(C4CCCCC4)c4ccccc4N(CC(=O)C(C)(C)C)C3=O)c2)NC(=O)COCCOCCNC(=O)CN2CCN(CC(=O)O)CCN(CC(=O)O)CCN(CC(=O)O)CC2)C(=O)N[C@@H](Cc2ccc(O)cc2)C(=O)N[C@H](Cc2c[nH]c3ccccc23)C(=O)N[C@@H](CCCCN)C(=O)N[C@@H]([C@@H](C)O)C(=O)N1)C(=O)O [^177Lu-I-35, metal not drawn] registered its tissue uptake at 72 h at 0.03

The compound identified as C[C@@H](O)[C@H](NC(=O)[C@@H]1CSSC[C@H](NC(=O)[C@@H](Cc2ccccc2)NC(=O)COCCOCCNC(=O)[C@H](CCCCNC(=O)c2cccc(NC(=O)N[C@@H]3CN(C4CCCCC4)c4ccccc4N(CC(=O)C(C)(C)C)C3=O)c2)NC(=O)CN2CCN(CC(=O)O)CCN(CC(=O)O)CCN(CC(=O)O)CC2)C(=O)N[C@@H](Cc2ccc(O)cc2)C(=O)N[C@H](Cc2c[nH]c3ccccc23)C(=O)N[C@@H](CCCCN)C(=O)N[C@@H]([C@@H](C)O)C(=O)N1)C(=O)O [Compound 177Lu-I-37, metal not drawn] registered its tissue uptake at 72 h at 0.05

====

- Procedure details: in vivo
- Run parameters: BALB/c nude, mouse, in vivo, iv, total radioactivity, uptake Liver
Measured quantity: tissue uptake at 24 h (%ID/g)
Use %ID/g as the unit, but write only the number.

Molecule	Measured quantity	Obs value
C[C@@H](O)[C@H](NC(=O)[C@@H]1CSSC[C@H](NC(=O)[C@@H](Cc2ccccc2)NC(=O)CCCCCCCNC(=O)[C@H](CCCCNC(=O)c2cccc(NC(=O)N[C@@H]3CN(C4CCCCC4)c4ccccc4N(CC(=O)C(C)(C)C)C3=O)c2)NC(=O)CN2CCN(CC(=O)O)CCN(CC(=O)O)CCN(CC(=O)O)CC2)C(=O)N[C@@H](Cc2ccc(O)cc2)C(=O)N[C@H](Cc2c[nH]c3ccccc23)C(=O)N[C@@H](CCCCN)C(=O)N[C@@H]([C@@H](C)O)C(=O)N1)C(=O)O [Compound I-61, DOTA-K(Z360)-Aoc-f[CYwKTC]T-OH]	tissue uptake at 24 h	53.3

The molecule identified as C[C@@H](O)[C@H](NC(=O)[C@@H]1CSSC[C@H](NC(=O)[C@@H](Cc2ccccc2)NC(=O)COCCOCCNC(=O)[C@H](CCCCNC(=O)c2cccc(NC(=O)N[C@@H]3CN(C4CCCCC4)c4ccccc4N(CC(=O)C(C)(C)C)C3=O)c2)NC(=O)COCCOCCNC(=O)CN2CCN(CC(=O)O)CCN(CC(=O)O)CCN(CC(=O)O)CC2)C(=O)N[C@@H](Cc2ccc(O)cc2)C(=O)N[C@H](Cc2c[nH]c3ccccc23)C(=O)N[C@@H](CCCCN)C(=O)N[C@@H]([C@@H](C)O)C(=O)N1)C(=O)O [Compound I-52, DOTA-OEG-K(Z360)-OEG-f[CYwKTC]T-OH] registered its tissue uptake at 24 h at 5.7

====

Measured tissue uptake at 24 h, listed per entry for reference.
- Procedure details: in vivo
- Run parameters: BALB/c nude, mouse, in vivo, iv, total radioactivity, % ID/g Intestine

A selection of reference data follows.
Compound	tissue uptake at 24 h
C[C@@H](O)[C@H](NC(=O)[C@@H]1CSSC[C@H](NC(=O)[C@@H](Cc2ccccc2)NC(=O)[C@H](CCCCNC(=O)c2cccc(NC(=O)N[C@@H]3CN(C4CCCCC4)c4ccccc4N(CC(=O)C(C)(C)C)C3=O)c2)NC(=O)COCCOCCNC(=O)CN2CCN(CC(=O)O)CCN(CC(=O)O)CCN(CC(=O)O)CC2)C(=O)N[C@@H](Cc2ccc(O)cc2)C(=O)N[C@H](Cc2c[nH]c3ccccc23)C(=O)N[C@@H](CCCCN)C(=O)N[C@@H]([C@@H](C)O)C(=O)N1)C(=O)O [^177Lu-I-35, metal not drawn]	0.84 %ID/g
C[C@@H](O)[C@H](NC(=O)[C@@H]1CSSC[C@H](NC(=O)[C@@H](Cc2ccccc2)NC(=O)COCCOCCNC(=O)[C@H](CCCCNC(=O)c2cccc(NC(=O)N[C@@H]3CN(C4CCCCC4)c4ccccc4N(CC(=O)C(C)(C)C)C3=O)c2)NC(=O)CN2CCN(CC(=O)O)CCN(CC(=O)O)CCN(CC(=O)O)CC2)C(=O)N[C@@H](Cc2ccc(O)cc2)C(=O)N[C@H](Cc2c[nH]c3ccccc23)C(=O)N[C@@H](CCCCN)C(=O)N[C@@H]([C@@H](C)O)C(=O)N1)C(=O)O [Compound 177Lu-I-37, metal not drawn]	0.67 %ID/g

Proceeding to the next compound to report its tissue uptake at 24 h.
The compound identified as C[C@@H](O)[C@H](NC(=O)[C@@H]1CSSC[C@H](NC(=O)[C@@H](Cc2ccccc2)NC(=O)COCCOCCNC(=O)COCCOCCNC(=O)[C@H](CCCCNC(=O)c2cccc(NC(=O)N[C@@H]3CN(C4CCCCC4)c4ccccc4N(CC(=O)C(C)(C)C)C3=O)c2)NC(=O)CN2CCN(CC(=O)O)CCN(CC(=O)O)CCN(CC(=O)O)CC2)C(=O)N[C@@H](Cc2ccc(O)cc2)C(=O)N[C@H](Cc2c[nH]c3ccccc23)C(=O)N[C@@H](CCCCN)C(=O)N[C@@H]([C@@H](C)O)C(=O)N1)C(=O)O [Compound 177Lu-I-39, metal not drawn] registered its tissue uptake at 24 h at 0.76 %ID/g
